Provide the recorded EC50 for the entries that follow.
Tested on: HIV-1 Strain B (M046I, I050V)
protocolDescription: microbe, parasite or virus in culture
Assay type: cell-based
measurementSetup: clinical isolate Strain B; read-out: B EC50
// units = nM; emit number, no label

input: Reported EC50 for CCc1ncc(-c2ccc(C[C@H](NC(=O)[C@@H](NC(=O)OC)C(C)(C)C)[C@@H](O)C[C@@H](Cc3ccccc3F)C(=O)N[C@H](C(=O)NC)C(C)(C)C)cc2)s1 : what is it?
output: 3.3

input: Tell me the measured EC50 of COC(=O)NC(C(=O)NC(Cc1ccc(-c2ccnc(C)c2)cc1)C(O)CC(Cc1cccc(Cl)c1)C(=O)NC1c2ccccc2OCC1O)C(C)(C)C (centres unmarked) , please.
output: 4.8

input: Fill in: EC50 of COC(=O)NC(C(=O)NC(Cc1ccc(-c2cc(C)nc(C)c2)cc1)C(O)CC(Cc1ccccc1F)C(=O)NC1c2cc(Cl)ccc2OCC1O)C(C)(C)C (centres unmarked) is ___
output: 3

input: I would be grateful if you could share the reported EC50 for COC(=O)NC(C(=O)NC(Cc1ccc(-c2ccc(N(C)C)nc2)cc1)C(O)CC(Cc1ccccc1F)C(=O)NC1c2cc(F)cc(F)c2OCC1O)C(C)(C)C (centres unmarked) .
output: 2.5

input: So what's the measured EC50 for this one? CN(C)c1ccc(-c2ccc(CC(NC(=O)C(NC(=O)CN3CCCC3)C(C)(C)C)C(O)CC(Cc3ccccc3F)C(=O)NC3c4cc(Cl)ccc4OCC3O)cc2)cn1 (centres unmarked)
output: 2.4

input: Could you share which EC50 value was measured for COC(=O)NC(C(=O)NC(Cc1ccc(-c2ccc(OC)nc2)cc1)C(O)CC(Cc1cccc(OC)c1)C(=O)NC1c2ccccc2OCC1O)C(C)(C)C (centres unmarked) ?
output: 1.2

input: Form field: reported EC50 of COCCNC(=O)[C@@H](NC(=O)[C@H](Cc1ccccc1Cl)C[C@H](O)[C@H](Cc1ccc(-c2ccc(OC)nc2)cc1)NC(=O)[C@@H](NC(=O)OC)C(C)(C)C)C(C)(C)C
output: 1

input: Which EC50 is reported for this compound? COC(=O)NC(C(=O)NC(Cc1ccc(-c2ccc(N(C)C)nc2)cc1)C(O)CC(Cc1cccc(Cl)c1)C(=O)NC1c2cc(F)ccc2OCC1O)C(C)(C)C (centres unmarked)
output: 3

input: I would be grateful if you could share the reported EC50 for COC(=O)N[C@H](C(=O)N[C@@H](Cc1ccc(-c2ccc(OC)nc2)cc1)[C@@H](O)C[C@@H](Cc1ccccc1Cl)C(=O)N[C@H]1c2ccccc2OC[C@H]1O)C(C)(C)C .
output: 0.9

input: Entry under review: COC(=O)N[C@H](C(=O)N[C@@H](Cc1ccccc1)[C@@H](O)CN(Cc1ccc(-c2ccccn2)cc1)NC(=O)[C@@H](NC(=O)OC)C(C)(C)C)C(C)(C)C . Reported EC50?
output: 3.3

input: Find the recorded EC50 belonging to COc1ccc(-c2ccc(C[C@H](NC(=O)O[C@H]3CO[C@H]4OCC[C@H]43)[C@@H](O)C[C@@H](Cc3ccccc3Cl)C(=O)N[C@H]3c4cc(Cl)ccc4OC[C@H]3O)cc2)cn1 and report it.
output: 1.4

input: Would you mind telling me what EC50 value was observed for COC(=O)NC(C(=O)NC(Cc1ccc(-c2cnc(C)s2)cc1)C(O)CC(Cc1ccccc1F)C(=O)NC1c2cc(Cl)ccc2OCC1O)C(C)(C)C (centres unmarked) ?
output: 3.5

input: Requested field: EC50. Item: COC(=O)N[C@H](C(=O)N[C@@H](Cc1ccc(-c2ccc(OC)nc2)cc1)[C@@H](O)C[C@@H](Cc1ccccc1Cl)C(=O)N[C@H]1[C@H](C)CCC[C@H]1O)C(C)(C)C
output: 0.7

input: Value lookup for EC50; key = COCCOC(=O)N[C@H](C(=O)N[C@@H](Cc1ccc(-c2ccc(OC)nc2)cc1)[C@@H](O)C[C@@H](Cc1ccccc1Cl)C(=O)N[C@H]1c2cc(F)ccc2OC[C@H]1O)C(C)(C)C
output: 0.9

input: Fill blank: measured EC50 of the compound COC(=O)N[C@H](C(=O)N[C@@H](Cc1ccc(-c2ccc(OC)nc2)cc1)[C@@H](O)C[C@@H](Cc1ccccc1F)C(=O)N[C@H]1c2cccc(Cl)c2OC[C@H]1O)C(C)(C)C is ____.
output: 0.8

input: If you can, please state the reported EC50 value of COc1ccc(-c2ccc(C[C@H](NC(=O)O[C@H]3CO[C@H]4OCC[C@H]43)[C@@H](O)C[C@@H](Cc3ccccc3F)C(=O)N[C@H]3c4cc(Cl)cc(F)c4OC[C@H]3O)cc2)cn1 .
output: 2.4

input: Which EC50 is listed for COc1ccc(-c2ccc(C[C@H](NC(=O)O[C@H]3CO[C@H]4OCC[C@H]43)[C@@H](O)C[C@@H](Cc3ccccc3F)C(=O)N[C@H]3c4cc(F)ccc4OC[C@H]3O)cc2)cn1 ?
output: 1.1

Ref: patent US20120295920A1
